Data provenance: patent US20240327497A1

Molecular target: canine FcRn (FcRn large subunit with canine beta-2-microglobulin) (canine)
Assay: SPR pH 6.0, IgG coupled to CM5, FcRn 50-800 nM
// reported Kd per item
Quick note: give the figure in nM, leave out the unit.

// below: answered binders
Binder: anti-NGF canine IgGB antibody, Fc variant A426H + T286L (antibody, part only; not given: Anti-NGF variable domains, not shown: another chain or arm of the molecule; small tags and cut ends) Fc: APEMLGGPSVFIFPPKPKDTLLIARTPEVTCVVVDLDPEDPEVQISWFVDGKQMQLAKTQPREEQFNGTYRVVSVLPIGHQDWLKGKQFTCKVNNKALPSPIERTISKARGQAHQPSVYVLPPSREELSKNTVSLTCLIKDFFPPDIDVEWQSNGQQEPESKYRTTPPQLDEDGSYFLYSKLSVDKSRWQRGDTFICHVMHEALHNHYTQESLSHSPGK
Kd, nM: 464
//
Binder: anti-NGF canine IgGB antibody, Fc variant N434R (antibody, part only; not given: Anti-NGF variable domains, not shown: another chain or arm of the molecule) Fc: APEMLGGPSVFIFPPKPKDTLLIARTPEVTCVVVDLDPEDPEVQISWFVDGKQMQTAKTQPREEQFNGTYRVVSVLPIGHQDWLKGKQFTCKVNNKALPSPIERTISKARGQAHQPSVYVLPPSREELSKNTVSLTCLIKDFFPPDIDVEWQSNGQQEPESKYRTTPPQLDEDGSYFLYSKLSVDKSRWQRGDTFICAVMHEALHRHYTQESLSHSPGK
Kd, nM: 497

Form field Kd, entry anti-NGF canine IgGB antibody, Fc variant A426Y + N434R (antibody, part only; not given: anti-NGF variable domains and light chain, not shown: another chain or arm of the molecule; small tags and cut ends) Fc: APEMLGGPSVFIFPPKPKDTLLIARTPEVTCVVVDLDPEDPEVQISWFVDGKQMQTAKTQPREEQFNGTYRVVSVLPIGHQDWLKGKQFTCKVNNKALPSPIERTISKARGQAHQPSVYVLPPSREELSKNTVSLTCLIKDFFPPDIDVEWQSNGQQEPESKYRTTPPQLDEDGSYFLYSKLSVDKSRWQRGDTFICYVMHEALHRHYTQESLSHSPGK : 288
